Entries and their Ki
# Assayed System: GAB1 PH domain (Homo sapiens, UniProt Q13480)
# Sequence (Q13480 5-116 limits assumed): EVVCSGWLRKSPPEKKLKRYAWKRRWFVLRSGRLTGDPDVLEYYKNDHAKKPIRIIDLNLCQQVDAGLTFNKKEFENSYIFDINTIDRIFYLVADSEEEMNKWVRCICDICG
# Test Method Notes: SPR binding assay, GAB1 PH domain
# Assay Setup: competitive binding vs PtdIns(3,4,5)P3 liposomes, values with asterisk; read-out: Kn or Ki (μM) GAB1, *Ki measurement

{"columns": ["Compound", "Ki"],
 "data": [
  ["CCCCCCCCCCCCc1ccc(S(=O)(=O)Nc2nnc(CC(=O)O)s2)cc1 [GAB-015]", "13.1 µM"],
  ["CCCCCCCCCCCCc1ccc(S(=O)(=O)Nc2nnc(S(N)(=O)=O)s2)cc1 [GAB-018]", "36.6 µM"]
]}

---

Entries and their IC50
# System: MDA-MB-231 breast cancer cell line
# Test Method Notes: Cellular proliferation assay (MTT), MDA-MB-231
# Format: cell-based, human
# Assay Setup: Homo sapiens, MDA-MB-231, 96 h; 4 days growth, MTT; IA: Inactive
Outcome Measure: IC50 (µM)

{"columns": ["Compound", "Outcome Measure", "Units", "Operator Symbol", "Value Measured"],
 "data": [
  ["O=C(O)c1ccccc1C(=O)Nc1ccccc1SCCS(=O)(=O)c1ccc(Cl)cc1", "IC50", "µM", ">", 200],
  ["CS(=O)(=NS(=O)(=O)c1ccc(-c2ccccn2)s1)c1ccc(Cl)cc1 (stereo not drawn)", "IC50", "µM", ">", 200],
  ["O=S(=O)(NCc1csc(-c2cccs2)n1)c1ccc(N2CCOCC2)nc1", "IC50", "µM", ">", 200],
  ["Cn1c(Cc2ccsc2)nnc1SCC(=O)Nc1cc(Cl)cc(Cl)c1", "IC50", "µM", ">", 200],
  ["Cn1cnc(S(=O)(=O)Nc2ccccc2SCCS(=O)(=O)c2ccc(Cl)cc2)c1", "IC50", "µM", "=", 143],
  ["Cc1nc(-c2cnc(S(=O)(=O)N3CCN(C4c5ccccc5-c5ccccc54)CC3)s2)cs1", "IC50", "µM", "=", 85.2],
  ["O=c1[nH]nc(SCc2csc(-c3ccccc3)n2)n1Cc1ccco1", "IC50", "µM", "=", 66.6],
  ["Cc1noc(C)c1NC(=O)NCc1csc(-c2cccs2)n1", "IC50", "µM", "=", 163],
  ["CS(=O)(=O)CCSc1ncccc1C(=O)Sc1ccc(Cl)cc1Cl", "IC50", "µM", "=", 4.6],
  ["O=S(=O)(NCc1csc2ccc(Cl)cc12)c1cc(S(=O)(=O)c2ccccc2)cs1", "IC50", "µM", "=", 40.3],
  ["COc1cc(NS(=O)(=O)c2ccc(NS(=O)(=O)c3c(C)noc3C)cc2)nc(OC)n1", "IC50", "µM", ">", 200],
  ["Cc1onc(-c2ccccc2)c1-c1nc(CSc2nc3ccccc3[nH]2)no1", "IC50", "µM", "=", 66]
]}

---

# Test system: GAB1 Y627 phosphorylation
# Test Method Notes: Inhibition of GAB1 Y627 phosphorylation in T47D cells
# Format: cell-based
# Assay Setup: Homo sapiens, Y627, 20 μM compound 4 hr, HGF stimulated, read-out: % pGAB1 inhibition
Cut-off 20% on inhibition at 20 µM, inclusive. At or above means label 1; below means label 0.

{"columns": ["Compound", "Assayed System", "Assigned Category"],
 "data": [
  ["CS(=O)(=NS(=O)(=O)c1ccc(-c2ccccn2)s1)c1ccc(Cl)cc1 (stereo not drawn)", "GAB1 Y627 phosphorylation", "label 0"],
  ["Cc1nc(-c2cnc(S(=O)(=O)N3CCN(C4c5ccccc5-c5ccccc54)CC3)s2)cs1", "GAB1 Y627 phosphorylation", "label 0"],
  ["Cc1noc(C)c1NC(=O)NCc1csc(-c2cccs2)n1", "GAB1 Y627 phosphorylation", "label 1"],
  ["Cc1cc2ncc(-c3cnc(SCCS(=O)(=O)c4ccc(Cl)cc4)nc3)c(C)n2n1", "GAB1 Y627 phosphorylation", "label 0"],
  ["CCc1ccc(C(=O)OC)cc1CSc1nnc(-c2ccc(C(F)(F)F)cc2)n1Cc1ccoc1", "GAB1 Y627 phosphorylation", "label 1"],
  ["CCCCCCCCCCCCCCCCCCOC[C@H](COP(=O)(O)OC1C(O)[C@@H](O)C(O)C[C@H]1O)OC (stereo partly drawn) [DPIEL, reference compound]", "GAB1 Y627 phosphorylation", "label 1"],
  ["Cc1nnc(NS(=O)(=O)c2ccc(NS(=O)(=O)c3ccc4ccccc4c3)cc2)s1", "GAB1 Y627 phosphorylation", "label 1"],
  ["O=S(=O)(NCc1csc(-c2cccs2)n1)c1ccc(N2CCOCC2)nc1", "GAB1 Y627 phosphorylation", "label 0"],
  ["O=C(O)c1ccccc1C(=O)Nc1ccccc1SCCS(=O)(=O)c1ccc(Cl)cc1", "GAB1 Y627 phosphorylation", "label 1"]
]}

---

# Tested on: GAB1 Y627 phosphorylation
# Test Method Notes: Inhibition of GAB1 Y627 phosphorylation in T47D cells
# Format: cell-based
# Assay Setup: Homo sapiens, Y627, 20 μM compound 4 hr, HGF stimulated, read-out: % pGAB1 inhibition
Entries and their inhibition at 20 µM

{"columns": ["Structure String", "Units", "inhibition at 20 µM"],
 "data": [
  ["CS(=O)(=O)CCSc1ncccc1C(=O)Sc1ccc(Cl)cc1Cl", "%", 53],
  ["CCCCCCCCCCCCc1ccc(S(=O)(=O)Nc2nncs2)cc1", "%", 87],
  ["Cn1c(Cc2ccsc2)nnc1SCC(=O)Nc1cc(Cl)cc(Cl)c1", "%", 24]
]}

---

# Assayed System: GAB1 PH domain (Homo sapiens)
# Test Method Notes: SPR binding assay, GAB1 PH domain
# Assay Setup: GAB1; derived from experimental KD or Ki, RT ln(KD)

{"columns": ["Structure String", "Assayed System", "Exp. ΔGbind"],
 "data": [
  ["O=c1[nH]nc(SCc2csc(-c3ccccc3)n2)n1Cc1ccco1", "GAB1 PH domain (Homo sapiens)", "-7.78 kcal/mol"],
  ["O=S(=O)(NCc1csc2ccc(Cl)cc12)c1cc(S(=O)(=O)c2ccccc2)cs1", "GAB1 PH domain (Homo sapiens)", "-6.91 kcal/mol"],
  ["CS(=O)(=O)CCSc1ncccc1C(=O)Sc1ccc(Cl)cc1Cl", "GAB1 PH domain (Homo sapiens)", "-6.01 kcal/mol"],
  ["CCCCCCCCCCCCc1ccc(S(=O)(=O)Nc2nnc(CC(=O)OCC)s2)cc1", "GAB1 PH domain (Homo sapiens)", "-8.31 kcal/mol"],
  ["CCCCCCCCCCCCc1ccc(S(=O)(=O)Nc2nnc(C(=O)OCC)s2)cc1", "GAB1 PH domain (Homo sapiens)", "-8.47 kcal/mol"]
]}

---

# Tested on: GAB1 Y627 phosphorylation
# Test Method Notes: Inhibition of GAB1 Y627 phosphorylation in T47D cells
# Assay type: cell-based
# Assay Setup: Homo sapiens, Y627, 20 μM compound 4 hr, HGF stimulated, read-out: % pGAB1 inhibition
# Protocol: For all biological assays, hit compounds were added at 20 μM concentration directly into the culture media of the cells for 4 hr following a 16 hr incubation of T47D cells without FBS. Cells were stimulated with HGF for 20 min at 50 ng/ml. […] The plate was read using a Sector™Imager 2400A instrument (Meso Scale Discovery protein profiling system, Gaithersburg, Md.). […]

{"columns": ["Molecule", "inhibition at 20 µM, %"],
 "data": [
  ["O=S(=O)(NCc1csc2ccc(Cl)cc12)c1cc(S(=O)(=O)c2ccccc2)cs1 [GAB-001]", 55],
  ["COc1cc(NS(=O)(=O)c2ccc(NS(=O)(=O)c3c(C)noc3C)cc2)nc(OC)n1 [GAB-013]", 27],
  ["O=c1[nH]nc(SCc2csc(-c3ccccc3)n2)n1Cc1ccco1 [GAB-004]", 81],
  ["Cc1onc(-c2ccccc2)c1-c1nc(CSc2nc3ccccc3[nH]2)no1 [GAB-010]", 92],
  ["Cn1cnc(S(=O)(=O)Nc2ccccc2SCCS(=O)(=O)c2ccc(Cl)cc2)c1 [GAB-002]", 32]
]}

---

# Assayed System: GAB1 PH domain (Homo sapiens, UniProt Q13480)
# Test Method Notes: SPR binding assay, GAB1 PH domain
# Assay Setup: SPR direct binding, values without asterisk; NB: No Binding; read-out: Kn or Ki (μM) GAB1
Outcome Measure: Ki (µM)

{"columns": ["Structure String", "Outcome Measure", "Value Measured"],
 "data": [
  ["CS(=O)(=O)CCSc1ncccc1C(=O)Sc1ccc(Cl)cc1Cl", "Ki", 42.3]
]}
